B1: glmS ribozyme (parent)
chain: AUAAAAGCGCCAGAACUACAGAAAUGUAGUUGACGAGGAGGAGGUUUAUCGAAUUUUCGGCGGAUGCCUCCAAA

Variants of: B1
Assay: self-cleavage kobs at 2500 uM GlcN6P; higher = faster cleavage; RNA array
Details: with glucosamine-6-phosphate
This sample holds only a part of the variants without activity.
RECORDED_ENDPOINT: self-cleavage kobs at 2500 uM GlcN6P

[[record]]
polymer_sequence = "AUAAAAGUGCCAGAACUACAGAAAUGUAGUUGACGAGGAGGAGGUUUAUCGAAUUAUCGGCGGAUGCCUCCAAA"
recorded_endpoint = "self-cleavage kobs at 2500 uM GlcN6P"
recorded_value = "< 1e-05 s⁻¹"

[[record]]
polymer_sequence = "AUAAAAGCGCCCGAACUACAGAAAUGUAGUCGACGAGGAGGAGGUUUAUCGAAUUCUCGGCGGAUGCCUCCAAA"
recorded_endpoint = "self-cleavage kobs at 2500 uM GlcN6P"
recorded_value = "0.000204 s⁻¹"


Alright, here's another variant for you.
For this variant ( AUAAAAGAGCCAGAACUACAGAAAUGUAGUUGACGAAGAGUAGGUUUUUGGAAUAUUCGGCGGAUGCCUCCAAA ), measured self-cleavage kobs at 2500 uM GlcN6P is < 1e-05 s⁻¹
